- ASSAY PROTOCOL: Cytotoxicity against human prostate epithelial cells assessed as growth inhibition after 48 hrs by alamar blue assay
- Type: cell-based, Prostate cell
EXPERIMENTAL ENDPOINT: GI50 at 48 h

Briefly, GI50 at 48 h measured for COC(=O)Cc1cc(O)n(-c2nc3ccccc3[nH]2)n1 : > 500 µM

* * *

- MEASURED TARGET: Lysine-specific demethylase 4E (Homo sapiens, UniProt B2RXH2)
- Sequence (B2RXH2 whole entry): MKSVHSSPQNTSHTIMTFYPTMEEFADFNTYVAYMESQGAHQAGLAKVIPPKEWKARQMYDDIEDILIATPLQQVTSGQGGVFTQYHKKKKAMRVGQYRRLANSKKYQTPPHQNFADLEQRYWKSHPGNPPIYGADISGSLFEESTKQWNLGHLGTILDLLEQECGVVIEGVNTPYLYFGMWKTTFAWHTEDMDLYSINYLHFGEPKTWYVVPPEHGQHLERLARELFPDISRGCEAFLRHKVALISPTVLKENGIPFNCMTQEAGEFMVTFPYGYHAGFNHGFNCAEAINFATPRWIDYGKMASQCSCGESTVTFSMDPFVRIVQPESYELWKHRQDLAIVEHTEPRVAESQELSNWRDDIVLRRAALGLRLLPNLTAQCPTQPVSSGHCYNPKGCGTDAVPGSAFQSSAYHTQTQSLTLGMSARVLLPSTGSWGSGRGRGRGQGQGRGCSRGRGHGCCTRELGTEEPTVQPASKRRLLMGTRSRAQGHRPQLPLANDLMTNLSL
- ASSAY PROTOCOL: Inhibition of N-terminal His6-tagged KDM4E (1 to 337 residues) (unknown origin) expressed in Escherichia coli BL21 (DE3)-R3 preincubated for 10 mins followed by substrate addition by fluorescence based FDH-coupled assay
Classification field. Basis: IC50. Definitions: lower range (below 20 µM), middle range (20 µM to below 80 µM), upper range (80 µM or more)

Any idea which band Cc1cc(N)n(-c2nc3ccccc3[nH]2)n1 is in?
upper range

# classify by IC50 band: CNCCCc1c(C)nn(-c2nc3ccccc3[nH]2)c1O
lower range

Using the reported IC50, which band applies to Cc1nn(-c2nc3ccccc3[nH]2)c(O)c1Cc1ccccc1 ?
middle range

Which class holds Cc1nn(-c2nc3ccccc3[nH]2)c(O)c1CCCN(C)C ?
middle range

Which category fits this record: C=CCc1c(C)nn(-c2ccccn2)c1O
upper range

Note: place this compound into its band. Item: CCCCc1nn(-c2nc3ccccc3[nH]2)c(O)c1-c1ccccc1
lower range

Would you mind sorting C=CCc1c(C)nn(-c2nc3ccccc3[nH]2)c1O into the appropriate category?
middle range

# classify by IC50 band: Cc1cc(O)n(-c2nc3ccccc3[nH]2)n1
middle range

Kindly state the category for this compound: Cc1nn(-c2nc3ccccc3[nH]2)c(O)c1CCC(=O)O
upper range

Exercise: read the entry Cc1nn(-c2nc3ccccc3s2)c(O)c1-c1ccccc1 and state which class it falls under.
middle range

Which bin, given its IC50, does Cc1nn(-c2nc3ccccc3n2C)c(O)c1-c1ccccc1 occupy?
middle range

Kindly state the category for this compound: CCc1nn(-c2nc3ccccc3[nH]2)c(O)c1-c1ccccc1
lower range
